# credit: patent US20210388087A1

Quick reference: fold change of affinity of the listed items.
Assay Target: T1, Human CD3eg linker (human)
T1 construct: Single chain: epsilon and gamma subunits of human CD3 joined by a 29-mer linker, Flag-tag at the C-terminus; also called recombinant human CD3
T1 chain: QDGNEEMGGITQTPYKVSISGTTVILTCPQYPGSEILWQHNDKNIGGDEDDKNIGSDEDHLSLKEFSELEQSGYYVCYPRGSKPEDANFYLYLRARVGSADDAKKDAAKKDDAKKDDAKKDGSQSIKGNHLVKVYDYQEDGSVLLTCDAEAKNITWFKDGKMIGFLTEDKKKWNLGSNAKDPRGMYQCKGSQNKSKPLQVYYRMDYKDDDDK
Measurement Notes: Biacore SPR, vs template H183/L072

| Binder | fold change of affinity (fold) |
| --- | --- |
| H183/L072 VH A57Q (antibody, name in Kabat numbering, V domains shown) VH: QVQLVESGGGLVQPGRSLRLSCAASGFTFSNAWMHWVRQAPGKGLEWVAQIKDKGNAYAQYYAPSVKGRFTISRDDSKNSIYLQMNSLKTEDTAVYYCHYVHYASASTVLPAFGVDAWGQGTTVTVSS VL: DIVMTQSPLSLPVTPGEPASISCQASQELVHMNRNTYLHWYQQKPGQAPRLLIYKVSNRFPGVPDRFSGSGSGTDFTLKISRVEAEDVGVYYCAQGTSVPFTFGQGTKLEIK | 1.1 |
| H183/L072 VH N53W (antibody, name in Kabat numbering, V domains shown) VH: QVQLVESGGGLVQPGRSLRLSCAASGFTFSNAWMHWVRQAPGKGLEWVAQIKDKGWAYAAYYAPSVKGRFTISRDDSKNSIYLQMNSLKTEDTAVYYCHYVHYASASTVLPAFGVDAWGQGTTVTVSS VL: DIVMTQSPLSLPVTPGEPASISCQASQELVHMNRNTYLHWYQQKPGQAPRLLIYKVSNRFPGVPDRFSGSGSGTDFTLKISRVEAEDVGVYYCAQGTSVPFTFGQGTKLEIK | 1.2 |
| H183/L072 VH G100hL (antibody, name in Kabat numbering, V domains shown) VH: QVQLVESGGGLVQPGRSLRLSCAASGFTFSNAWMHWVRQAPGKGLEWVAQIKDKGNAYAAYYAPSVKGRFTISRDDSKNSIYLQMNSLKTEDTAVYYCHYVHYASASTVLPAFLVDAWGQGTTVTVSS VL: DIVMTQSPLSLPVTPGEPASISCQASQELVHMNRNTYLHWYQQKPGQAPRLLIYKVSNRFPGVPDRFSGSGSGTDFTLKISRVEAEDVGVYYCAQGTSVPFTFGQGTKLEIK | 0.8 |
